Target: CFTR-mediated short-circuit current in F508del/MF-HBE cells (Homo sapiens, UniProt P13569, DEL508-508)
Construct: human bronchial epithelial (HBE) cells derived from CF subjects; endogenous in cells; host or cells: primary human bronchial epithelial cells from CF subjects (F508del/MF-HBE)
Sequence (P13569 with tags, fused parts or gaps DEL508-508): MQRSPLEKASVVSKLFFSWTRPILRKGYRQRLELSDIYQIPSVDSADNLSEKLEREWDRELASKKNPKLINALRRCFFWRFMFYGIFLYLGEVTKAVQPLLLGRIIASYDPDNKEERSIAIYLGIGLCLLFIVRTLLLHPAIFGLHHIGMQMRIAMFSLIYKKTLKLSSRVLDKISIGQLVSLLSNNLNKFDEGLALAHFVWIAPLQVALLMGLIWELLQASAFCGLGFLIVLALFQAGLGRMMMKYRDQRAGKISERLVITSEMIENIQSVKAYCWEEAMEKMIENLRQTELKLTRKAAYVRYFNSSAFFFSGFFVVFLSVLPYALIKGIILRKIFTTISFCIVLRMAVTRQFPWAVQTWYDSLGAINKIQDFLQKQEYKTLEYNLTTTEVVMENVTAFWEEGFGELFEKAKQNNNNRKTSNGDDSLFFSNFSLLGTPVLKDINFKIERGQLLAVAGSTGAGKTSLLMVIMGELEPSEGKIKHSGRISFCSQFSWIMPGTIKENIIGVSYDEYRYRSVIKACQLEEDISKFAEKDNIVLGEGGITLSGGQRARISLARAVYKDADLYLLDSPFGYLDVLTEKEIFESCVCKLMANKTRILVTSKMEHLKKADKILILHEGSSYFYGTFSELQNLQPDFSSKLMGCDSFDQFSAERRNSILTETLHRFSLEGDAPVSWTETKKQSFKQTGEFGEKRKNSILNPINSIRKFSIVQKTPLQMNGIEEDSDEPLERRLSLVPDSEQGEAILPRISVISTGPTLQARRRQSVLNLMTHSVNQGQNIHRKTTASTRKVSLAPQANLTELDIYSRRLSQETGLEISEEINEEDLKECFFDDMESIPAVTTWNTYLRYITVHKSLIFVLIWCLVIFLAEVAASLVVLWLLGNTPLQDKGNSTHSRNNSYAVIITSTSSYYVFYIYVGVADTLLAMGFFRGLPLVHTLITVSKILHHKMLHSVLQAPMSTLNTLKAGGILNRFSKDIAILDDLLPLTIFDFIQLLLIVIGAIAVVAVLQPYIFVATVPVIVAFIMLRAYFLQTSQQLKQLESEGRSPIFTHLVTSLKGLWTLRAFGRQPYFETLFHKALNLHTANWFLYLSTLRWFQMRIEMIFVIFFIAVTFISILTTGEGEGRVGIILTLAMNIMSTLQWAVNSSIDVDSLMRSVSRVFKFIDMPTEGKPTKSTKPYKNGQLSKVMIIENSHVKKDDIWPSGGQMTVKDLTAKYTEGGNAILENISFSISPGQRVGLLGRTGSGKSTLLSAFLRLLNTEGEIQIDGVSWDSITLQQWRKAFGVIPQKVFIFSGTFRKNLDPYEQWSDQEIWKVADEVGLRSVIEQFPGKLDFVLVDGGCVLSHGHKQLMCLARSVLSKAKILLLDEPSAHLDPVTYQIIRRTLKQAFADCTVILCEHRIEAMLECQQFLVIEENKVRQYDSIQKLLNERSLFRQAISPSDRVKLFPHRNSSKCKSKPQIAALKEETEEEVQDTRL
Test: HBE2 assay: Ussing chamber assay of CFTR-mediated short-circuit currents
Assay type: cell-based
Outcome measure: activation at 3 µM

Answered examples (5):
Molecule: Cc1cccc(C)c1-c1cc2nc(n1)NS(=O)(=O)c1cccc(c1)C(=O)N1[C@@H](c3cccc(N(C)C4CC5(CC5)C4)n3)CC[C@H]1[C@@H](CC(C)C)O2
activation at 3 µM: 30 to 60%
--
Molecule: Cc1cccc(C)c1-c1cc2nc(n1)NS(=O)(=O)c1cccc(c1)C(=O)N1[C@@H](c3ncc(OC(C)C)cn3)CC[C@@H](O2)[C@H]1CC(C)C
activation at 3 µM: < 30%
--
Molecule: Cc1cccc(C)c1-c1cc2nc(n1)NS(=O)(=O)c1cccc(c1)C(=O)N1[C@H](CCC[C@@H]1C(=O)NCc1ccccc1)CO2
activation at 3 µM: 30 to 60%
--
Molecule: Cc1cccc(C)c1-c1cc2nc(n1)NS(=O)(=O)c1cccc(c1)C(=O)N1[C@@H](c3ncc(OC(C)C)cn3)CC[C@@H](CC(C)C)[C@H]1CO2 (single isomer, unassigned)
activation at 3 µM: > 60%
--
Molecule: Cc1cccc(C)c1-c1cc2nc(n1)NS(=O)(=O)c1cccc(c1)C(=O)N1[C@@H](c3ncc(OC(C)C)cn3)CCC[C@H]1[C@@H](CC(C)C)O2
activation at 3 µM: 30 to 60%

Would you be so kind as to report activation at 3 µM for each listed record?
1. Cc1cccc(C)c1-c1cc2nc(n1)NS(=O)(=O)c1cccc(c1)C(=O)N1[C@@H](CCCC[C@@H]1c1ncc(OCc3ccccc3)cn1)CO2
2. Cc1cccc(C)c1-c1cc2nc(n1)NS(=O)(=O)c1cccc(c1)C(=O)N1[C@@H](c3cncc(N(C)C4CCC4)n3)CCC(O2)[C@H]1CC(C)C (single isomer, unassigned)
3. Cc1cccc(C)c1-c1cc2nc(n1)NS(=O)(=O)c1cccc(c1)C(=O)N1C[C@@H](CCCC[C@@H]1c1ncc(OCc3ccccc3)cn1)O2

1: 30 to 60%; 2: > 60%; 3: 30 to 60%

###

Target: CFTR-mediated chloride transport in human intestinal epithelial enteroid cells (Homo sapiens)
Experiment: Membrane potential dye, Enteroid Assay A
Format: cell-based
Conditions: read-out: Ent. A EC50
pEC50: −log10 of the molar value.
Outcome measure: pEC50

What does the record list as pEC50 for Cc1cccc(C)c1-c1cc2nc(n1)NS(=O)(=O)c1cccc(c1)C(=O)N1CCN(C3CCC(C)(C)CC3)C[C@H](C1)O2 [Compound 5] ? > 6.00

###

Molecular target: CFTR-mediated chloride transport in human intestinal epithelial enteroid cells (Homo sapiens, UniProt P13569)
Sequence (P13569 with tags, fused parts or gaps DEL508-508): as above
Assay: Membrane potential dye, Enteroid Assay A
Assay type: cell-based
Conditions: Enteroid Assay A; read-out: Ent. A EC50
Outcome measure: EC50

Substance smiles: Cc1cccc(C)c1-c1cc2nc(n1)NS(=O)(=O)c1cccc(c1)C(=O)N1CCN(C(C)(C)C)C[C@H](C1)O2
EC50: < 1000 nM

Would you be so kind as to report EC50 for each listed record?
1. Cc1cccc(C)c1-c1cc2nc(n1)NS(=O)(=O)c1cccc(c1)C(=O)N1C[C@@H](CN(C(=O)OC(C)(C)C)C[C@@H]1CCC(C)C)O2
2. Cc1cccc(C)c1-c1cc2nc(n1)NS(=O)(=O)c1cccc(c1)C(=O)N1C[C@@H](CN(C(=O)OC(C)(C)C)C[C@H]1C(C)C)O2

["< 1000 nM", "< 1000 nM"]
